# studySystem: recombinant human ATX beta isoform with N-terminal purification tag (human, UniProt Q13822 49-863)
# protocolDetails: ELISA, Fab-His captured by anti-Fd, 5 nM biotinylated human ATX beta
# Description: Fabs were captured on black MaxiSorp plates (Nunc, Cat. No. 437111) coated with 1 μg/ml sheep anti-human Fd (CH1) antibody (The Binding Site, Cat. No. PC075). Plates were washed and biotinylated human ATX was added to the captured Fabs at 5 nM. Incubation was carried out for 1 hour at room temperature with gentle shaking. Plates were washed, SA-HRP (Invitrogen, Cat. No. 43-4323) was added and chemiluminescent detection carried out. […]
endpoint: Fab Binding

A selection of reference data follows.
binder	Fab Binding
Fab F63 (VH H55, VL L57) (Fab, V domains shown, Soluble Fab-His) VH: QVQLVQSGAEVKKPGSSVKVSCKASGGTFSSYGISWVRQAPGQGLEWMGGIIPIFGTANYAQKFQGRVTITADESTSTAYMELSSLRSEDTAVYYCARRDGNYLHVDHFDYWGQGTLVTVSS VL: EIVLTQSPATLSLSPGERATLSCRASQSVASALAWYQQKPGQAPRLLIYKASNRATGIPARFSGSGSGTDFTLTISSLEPEDFAVYYCQQGGNWPWTFGQGTKVEIK	980000 relative chemiluminescence units
Fab F96 (VH H89, VL IFWL124) (Fab, V domains shown, Soluble Fab-His; converted to mAb B8) VH: QVQLVQSGAEVKKPGSSVKVSCKASGGTFSSYAISWVRQAPGQGLEWMGGIIPIFGTANYAQKFQGRVTITADESTSTAYMELSSLRSEDTAVYYCARDSSAYGDFDYWGQGTLVTVSS VL: DIQMTQSPSSLSASVGDRVTITCRASQSIDGWLNWYQQKPGKAPKLLIYAASSLQSGVPSRFSGSGSGTDFTLTISSLQPEDFATYYCQQSYSTPLTFGQGTKVEIK	5.9e+06 relative chemiluminescence units

Shifting focus to the binder that follows.
input: Would you kindly share the measured Fab Binding for Fab F5 (VH H4, VL L4) (Fab, V domains shown, Soluble Fab-His; converted to mAb B1) VH: EVQLVQSGAEVKKPGESLKISCKGSGYSFTSYWIGWVRQMPGKGLEWMGIIYPGDSDTRYSPSFQGQVTISADKSISTAYLQWSSLKASDTAMYYCARNWSEALYVVFDYWGQGTLVTVSS VL: EIVLTQSPATLSLSPGERATLSCRASQSVANFLAWYQQKPGQAPRLLIYYASNRATGIPARFSGSGSGTDFTLTISSLEPEDFAVYYCQQYFSAPFTFGQGTKVEIK ?
output: 3.8e+06 relative chemiluminescence units
